# target-entity: T1, EsCas13d, nuclease-dead (Eubacterium siraeum, UniProt B0MS50, R295A;H300A;R849A;H854A)
# T1 sequence: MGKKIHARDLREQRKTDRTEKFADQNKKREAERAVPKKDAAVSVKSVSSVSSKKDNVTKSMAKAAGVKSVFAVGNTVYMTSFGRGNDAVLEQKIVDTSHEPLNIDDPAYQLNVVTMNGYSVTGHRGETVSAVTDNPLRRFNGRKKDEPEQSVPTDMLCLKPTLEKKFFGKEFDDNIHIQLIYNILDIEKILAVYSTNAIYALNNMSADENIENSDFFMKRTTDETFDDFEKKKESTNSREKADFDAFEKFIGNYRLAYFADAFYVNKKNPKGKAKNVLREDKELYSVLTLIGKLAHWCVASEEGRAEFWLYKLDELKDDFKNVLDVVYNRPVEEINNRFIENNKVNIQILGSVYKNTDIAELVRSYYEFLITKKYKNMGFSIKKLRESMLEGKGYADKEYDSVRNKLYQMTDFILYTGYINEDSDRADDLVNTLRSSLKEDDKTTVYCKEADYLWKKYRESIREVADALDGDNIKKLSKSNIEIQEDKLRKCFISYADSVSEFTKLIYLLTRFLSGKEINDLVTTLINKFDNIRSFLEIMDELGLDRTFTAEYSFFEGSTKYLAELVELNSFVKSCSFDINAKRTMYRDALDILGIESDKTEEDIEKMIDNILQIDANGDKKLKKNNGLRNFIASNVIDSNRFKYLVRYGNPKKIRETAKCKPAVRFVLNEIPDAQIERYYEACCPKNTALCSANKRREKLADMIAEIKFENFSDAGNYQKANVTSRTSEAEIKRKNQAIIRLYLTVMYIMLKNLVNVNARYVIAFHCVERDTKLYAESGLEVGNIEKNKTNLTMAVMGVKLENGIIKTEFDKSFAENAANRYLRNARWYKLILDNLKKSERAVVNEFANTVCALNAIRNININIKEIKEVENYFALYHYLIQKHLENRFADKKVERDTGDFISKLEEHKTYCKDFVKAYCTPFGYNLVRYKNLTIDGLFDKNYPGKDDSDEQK
# test: crRNA (strand 1, pre-loaded); Mg2+; 40 mM Tris-HCl pH 7.5, 150 mM NaCl, 6 mM MgCl2, 1 mM DTT, 0.1% Tween-20, 0.2 mg/ml BSA; 25 C; 10 min per concentration, then washed
# condition-context: tags: His6-TwinStrep-SUMO cleaved; N-terminal SNAP kept (SNAP-Surface 488); label: 3' end held by stalled T7 RNA polymerase
Items are presented alongside their recorded log10(Kd).
observation-type: log10(Kd) (log10 of the value in nM)

| binder | log10(Kd) |
| --- | --- |
| target 2 MT 5'PFS AGA 3'PFS CUG (mixed) RNA 1: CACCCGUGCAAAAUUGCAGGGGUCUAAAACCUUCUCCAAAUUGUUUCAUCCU RNA 2: GGGAAUGGAUCCACAUCUACGAAUUCAGAAGGAUGAAACAAUUUGGAGAAGCUGAGAUCGGAAGAGCACACGU | 0.77 |
| target 1 insA 3' of 22,insC 3' of 8 (mixed) RNA 1: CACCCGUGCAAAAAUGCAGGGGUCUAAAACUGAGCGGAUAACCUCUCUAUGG RNA 2: GGGAAUGGAUCCACAUCUACGAAUUCGUACACAUAGAGAGGUUAUCCCGCUCACCGAGAUCGGAAGAGCACACGU | 1.35 |
| target 3 insU 3' of 9,insC 3' of 9 (mixed) RNA 1: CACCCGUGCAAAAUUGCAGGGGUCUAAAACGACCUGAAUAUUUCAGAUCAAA RNA 2: GGGAAUGGAUCCACAUCUACGAAUUCGUUUUUGAUCUGAAAUAUCUUCAGGUCUGCAGAUCGGAAGAGCACACGU | 1.98 |
| target 1 MT 5'PFS GCC 3'PFS CUG (mixed) RNA 1: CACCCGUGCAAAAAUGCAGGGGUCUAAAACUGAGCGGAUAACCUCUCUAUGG RNA 2: GGGAAUGGAUCCACAUCUACGAAUUCGCCCCAUAGAGAGGUUAUCCGCUCACUGAGAUCGGAAGAGCACACGU | 1.23 |
| target 1 insA 3' of 19,insU 3' of 7 (mixed) RNA 1: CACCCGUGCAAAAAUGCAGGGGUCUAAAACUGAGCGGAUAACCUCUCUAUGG RNA 2: GGGAAUGGAUCCACAUCUACGAAUUCGUACCAUAAGAGAGGUUAUCUCGCUCACCGAGAUCGGAAGAGCACACGU | 1.62 |
| target 2 MT 5'PFS CUU 3'PFS UAU (mixed) RNA 1: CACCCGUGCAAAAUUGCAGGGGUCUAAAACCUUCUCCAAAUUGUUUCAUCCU RNA 2: GGGAAUGGAUCCACAUCUACGAAUUCCUUAGGAUGAAACAAUUUGGAGAAGUAUAGAUCGGAAGAGCACACGU | 0.51 |
| target 3 U8A,U22A (mixed) RNA 1: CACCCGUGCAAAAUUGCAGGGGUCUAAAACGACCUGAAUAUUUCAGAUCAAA RNA 2: GGGAAUGGAUCCACAUCUACGAAUUCGUUAUUGAUCUGAAAUAAUCAGGUCUGCAGAUCGGAAGAGCACACGU | 2.04 |
| target 2 MT 5'PFS GCA 3'PFS AUA (mixed) RNA 1: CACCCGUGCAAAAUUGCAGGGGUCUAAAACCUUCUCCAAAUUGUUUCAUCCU RNA 2: GGGAAUGGAUCCACAUCUACGAAUUCGCAAGGAUGAAACAAUUUGGAGAAGAUAAGAUCGGAAGAGCACACGU | 0.86 |
